meta.source: patent US20250250357A1

# key: entry, value: OD450
- MEASUREMENT_TARGET: T1, human MSLN-hFc protein (Acro, Cat. No. MSN-H5253) (human, UniProt Q13421 296-580)
- T1 construct: the method names the coated protein as human MSLN-hFc (Acro); also called human MSLN full-length protein
- T1 sequence (Q13421 other isoform, or with tags, fused parts or gaps limits assumed): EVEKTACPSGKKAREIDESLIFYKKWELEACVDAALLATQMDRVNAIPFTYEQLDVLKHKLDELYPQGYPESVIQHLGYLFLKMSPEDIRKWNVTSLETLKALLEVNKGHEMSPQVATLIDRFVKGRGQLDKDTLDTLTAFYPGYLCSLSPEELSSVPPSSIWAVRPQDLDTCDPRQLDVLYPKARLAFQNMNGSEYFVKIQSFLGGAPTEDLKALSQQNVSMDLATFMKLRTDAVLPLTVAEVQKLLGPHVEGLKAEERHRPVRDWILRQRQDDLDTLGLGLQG
- TEST_DETAILS: ELISA on coated antigen, antibody 0.0001 nM
Express your answer in OD450, writing the number without its unit.

Below: 9 binders and their reported OD450.
BINDER | OD450 [OD450]
F7.44.20-H14 (scFv, not shown: small tags and cut ends, also called S009-F7.44.20 humanized antibody VH2a + VL2) scFv: EVQLVQSGAEVKKPGASVKVSCKASGYTFTDYNMDWVRQAPGQGLEWMGDINPSTGGTIYNQKFSGRVTMTEDKSASTVYMELSSLRSEDTAVYYCARRRIGTGYFDVWGQGTTVTVSSGGGGSGGGGSGGGGSEIVLTQSPDFQSVTPKEKVTITCSASSSVISSYLSWYQQKPDQSPKLLIYRTSNLASGVPSRFSGSGSGTDYTLTINSLEAEDAATYYCHQWSSFPYTFGGGTKVEIK | 0.05
F7.44.20-H13 (scFv, not shown: small tags and cut ends, also called S009-F7.44.20 humanized antibody VH2a + VL1) scFv: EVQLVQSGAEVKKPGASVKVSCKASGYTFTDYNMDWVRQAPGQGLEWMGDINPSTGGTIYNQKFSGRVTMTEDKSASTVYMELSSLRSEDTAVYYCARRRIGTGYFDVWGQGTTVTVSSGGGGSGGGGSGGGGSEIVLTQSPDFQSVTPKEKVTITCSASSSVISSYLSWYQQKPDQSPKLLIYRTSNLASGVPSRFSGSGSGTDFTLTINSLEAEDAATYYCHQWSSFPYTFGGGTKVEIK | 0.06
F7.44.20-H11 (scFv, not shown: small tags and cut ends, also called S009-F7.44.20 humanized antibody VH2 + VL3) scFv: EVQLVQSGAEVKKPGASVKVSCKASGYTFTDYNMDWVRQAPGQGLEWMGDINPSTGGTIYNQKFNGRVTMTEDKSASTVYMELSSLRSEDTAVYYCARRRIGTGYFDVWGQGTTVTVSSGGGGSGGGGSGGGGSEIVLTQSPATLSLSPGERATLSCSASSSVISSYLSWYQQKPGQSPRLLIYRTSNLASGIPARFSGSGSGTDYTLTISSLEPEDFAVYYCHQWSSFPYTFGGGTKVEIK | 0.05
F7.44.20-H2 (scFv, not shown: small tags and cut ends, also called S009-F7.44.20 humanized antibody VH1 + VL2) scFv: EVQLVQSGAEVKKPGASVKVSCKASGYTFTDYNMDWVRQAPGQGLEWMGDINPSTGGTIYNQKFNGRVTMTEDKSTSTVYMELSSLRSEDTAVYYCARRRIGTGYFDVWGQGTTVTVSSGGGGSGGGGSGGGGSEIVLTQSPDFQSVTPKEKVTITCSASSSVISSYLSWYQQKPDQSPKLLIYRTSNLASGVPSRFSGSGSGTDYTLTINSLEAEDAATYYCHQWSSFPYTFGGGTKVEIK | 0.04
F7.44.20-H3 (scFv, not shown: small tags and cut ends, also called S009-F7.44.20 humanized antibody VH1 + VL3) scFv: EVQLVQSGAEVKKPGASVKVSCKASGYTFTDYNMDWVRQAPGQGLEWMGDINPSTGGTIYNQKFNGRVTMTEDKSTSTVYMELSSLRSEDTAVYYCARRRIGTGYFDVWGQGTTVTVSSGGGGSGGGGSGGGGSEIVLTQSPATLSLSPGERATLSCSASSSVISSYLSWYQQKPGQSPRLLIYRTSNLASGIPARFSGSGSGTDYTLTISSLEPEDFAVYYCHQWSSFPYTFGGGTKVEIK | 0.04
F7.44.20-H5 (scFv, not shown: small tags and cut ends, also called S009-F7.44.20 humanized antibody VH1a + VL1) scFv: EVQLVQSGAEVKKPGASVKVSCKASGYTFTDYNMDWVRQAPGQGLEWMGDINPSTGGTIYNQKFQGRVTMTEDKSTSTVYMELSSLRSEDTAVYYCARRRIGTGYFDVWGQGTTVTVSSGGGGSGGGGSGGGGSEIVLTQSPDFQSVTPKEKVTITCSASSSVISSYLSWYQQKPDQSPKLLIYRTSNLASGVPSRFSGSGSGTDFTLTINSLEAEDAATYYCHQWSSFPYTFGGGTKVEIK | 0.04
F7.44.20-H16 (scFv, not shown: small tags and cut ends, also called S009-F7.44.20 humanized antibody VH2a + VL4) scFv: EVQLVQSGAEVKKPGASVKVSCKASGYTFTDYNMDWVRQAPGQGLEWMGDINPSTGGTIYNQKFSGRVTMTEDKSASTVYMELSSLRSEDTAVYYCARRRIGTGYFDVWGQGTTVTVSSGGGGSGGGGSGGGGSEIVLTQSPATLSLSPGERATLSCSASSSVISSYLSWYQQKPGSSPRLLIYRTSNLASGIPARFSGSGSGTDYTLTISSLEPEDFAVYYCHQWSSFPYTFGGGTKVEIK | 0.05
F7.44.20-VL-VH (scFv, not shown: small tags and cut ends, also called S009-F7.44.20 parental variable regions, VL-VH order) scFv: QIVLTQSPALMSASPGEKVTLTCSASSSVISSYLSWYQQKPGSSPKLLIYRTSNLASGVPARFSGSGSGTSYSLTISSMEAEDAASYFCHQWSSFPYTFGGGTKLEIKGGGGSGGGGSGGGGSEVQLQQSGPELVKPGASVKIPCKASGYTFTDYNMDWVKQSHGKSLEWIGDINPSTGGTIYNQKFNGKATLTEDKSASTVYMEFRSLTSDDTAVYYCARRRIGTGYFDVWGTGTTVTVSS | 0.04
F7.44.20-H6 (scFv, not shown: small tags and cut ends, also called S009-F7.44.20 humanized antibody VH1a + VL2) scFv: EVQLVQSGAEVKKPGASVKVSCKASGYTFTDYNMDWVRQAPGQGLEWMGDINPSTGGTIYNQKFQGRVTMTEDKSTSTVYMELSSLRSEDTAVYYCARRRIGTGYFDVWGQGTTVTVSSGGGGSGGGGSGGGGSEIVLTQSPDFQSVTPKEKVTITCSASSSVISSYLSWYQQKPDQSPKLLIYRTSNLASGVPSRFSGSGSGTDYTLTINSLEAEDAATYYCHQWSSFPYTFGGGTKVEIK | 0.05

Please examine the following record next.
Qu. What value of OD450 has been reported for the following binder? F7.44.20 (scFv, not shown: small tags and cut ends, also called S009-F7.44.20 (parental variable regions, in the humanized-antibody ELISA)) scFv: EVQLQQSGPELVKPGASVKIPCKASGYTFTDYNMDWVKQSHGKSLEWIGDINPSTGGTIYNQKFNGKATLTEDKSASTVYMEFRSLTSDDTAVYYCARRRIGTGYFDVWGTGTTVTVSSGGGGSGGGGSGGGGSQIVLTQSPALMSASPGEKVTLTCSASSSVISSYLSWYQQKPGSSPKLLIYRTSNLASGVPARFSGSGSGTSYSLTISSMEAEDAASYFCHQWSSFPYTFGGGTKLEIK
Ans. 0.04
